- Tested on: Escherichia coli TOP10
- ASSAY_INFO: shrunken log2 fold change of peptide-encoding DNA abundance (4.5 h post-induction vs induction); higher = less antimicrobial activity (less host growth inhibition)
- STATED_CONDITIONS: time post-induction: 4.5 h; library: site-saturation at positions 5, 18, 19, 20
Quick reference: shrunken log2 fold change of the listed items.
Reply with the value as a number alone.

Known shrunken log2 fold change results, listed for orientation:
RRIRHRPPRLPRPRPRPKTVPRP = -0.154
RRIRSRPPRLPRPRPRPNWAPRP = 0.64
RRIRIRPPRLPRPRPRPEVTPRP = -0.0113
RRIRCRPPRLPRPRPRPDYDPRP = 0.0933
RRIRFRPPRLPRPRPRPHTGPRP = -0.411
RRIRCRPPRLPRPRPRPILQPRP = -0.0117

Form field shrunken log2 fold change, entry `RRIRYRPPRLPRPRPRPFWLPRP` : -0.0817

Form field shrunken log2 fold change, entry `RRIRSRPPRLPRPRPRPDTGPRP` : -0.00127

Form field shrunken log2 fold change, entry `RRIRIRPPRLPRPRPRPALHPRP` : -0.268

Form field shrunken log2 fold change, entry `RRIRFRPPRLPRPRPRPARGPRP` : 0.624

====

- Test system: Escherichia coli TOP10
- ASSAY_INFO: shrunken log2 fold change of peptide-encoding DNA abundance (4.5 h post-induction vs induction); higher = less antimicrobial activity (less host growth inhibition)
- STATED_CONDITIONS: time post-induction: 4.5 h; library: site-saturation at positions 5, 18, 19, 20
RECORDED_METRIC: shrunken log2 fold change
Reply with the value as a number alone.

Known shrunken log2 fold change results, listed for orientation:
RRIRYRPPRLPRPRPRPCMSPRP = -0.282
RRIRHRPPRLPRPRPRPETMPRP = 0.054
RRIRRRPPRLPRPRPRPMYWPRP = -0.185
RRIRDRPPRLPRPRPRPYHPPRP = -0.449
RRIRSRPPRLPRPRPRPSMRPRP = 0.369

Entry `RRIRHRPPRLPRPRPRPNVEPRP` ; assay system Escherichia coli TOP10; shrunken log2 fold change recorded at -0.063

Entry `RRIRQRPPRLPRPRPRPGFEPRP` ; assay system Escherichia coli TOP10; shrunken log2 fold change recorded at 0.809

Entry `RRIRNRPPRLPRPRPRPSWHPRP` ; assay system Escherichia coli TOP10; shrunken log2 fold change recorded at -0.535

Entry `RRIRIRPPRLPRPRPRPARAPRP` ; assay system Escherichia coli TOP10; shrunken log2 fold change recorded at 0.307

Entry `RRIRERPPRLPRPRPRPMFAPRP` ; assay system Escherichia coli TOP10; shrunken log2 fold change recorded at 0.0495

====

- System: Escherichia coli TOP10;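 note: peptides expressed intracellularly from a pBAD plasmid library in pooled LB shake-flask culture, induced with 0.3% L-arabinose, DNA abundance read by NGS, three biological replicates, DESeq2 with apeglm shrinkage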
- ASSAY_INFO: shrunken log2 fold change of peptide-encoding DNA abundance (4.5 h post-induction vs induction); higher = less antimicrobial activity (less host growth inhibition)
- STATED_CONDITIONS: time post-induction: 4.5 h; library: site-saturation at positions 5, 18, 19, 20
Consider the reported shrunken log2 fold change of an entry and match it to a band in lo: < -0.2; med: ≥ -0.2 and < 0.03; hi: ≥ 0.03

Examples from the recorded data:
RRIRYRPPRLPRPRPRPSAPPRP = lo
RRIRTRPPRLPRPRPRPRKHPRP = med
RRIRMRPPRLPRPRPRPEIMPRP = hi

Into which category would you place `RRIRYRPPRLPRPRPRPQNKPRP` ? lo

Into which category would you place `RRIRLRPPRLPRPRPRPFAHPRP` ? lo

Into which category would you place `RRIRNRPPRLPRPRPRPPIHPRP` ? lo

Into which category would you place `RRIRLRPPRLPRPRPRPECDPRP` ? med
